Where do the numbers come from? From patent US20030148956A1.

Target: T1, corticotropin releasing factor 2 receptor
T1 sequence (Q13324 whole entry, species assumed, looked up): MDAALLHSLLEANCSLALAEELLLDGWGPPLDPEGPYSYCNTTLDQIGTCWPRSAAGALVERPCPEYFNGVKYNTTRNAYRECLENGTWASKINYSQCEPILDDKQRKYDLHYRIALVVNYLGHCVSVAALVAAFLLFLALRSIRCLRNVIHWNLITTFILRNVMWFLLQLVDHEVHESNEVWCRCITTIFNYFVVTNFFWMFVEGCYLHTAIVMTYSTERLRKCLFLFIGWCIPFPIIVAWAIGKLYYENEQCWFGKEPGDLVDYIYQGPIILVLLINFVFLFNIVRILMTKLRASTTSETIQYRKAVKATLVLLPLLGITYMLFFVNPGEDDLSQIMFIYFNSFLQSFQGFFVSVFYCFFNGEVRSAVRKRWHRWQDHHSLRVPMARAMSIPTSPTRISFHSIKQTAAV
Experiment: cell-based or functional assay
Ends that are not written are not given here.
property-name: CRF2R Emax % (%)

binder: IVLSLDVPIGLLQKMIEIEKQEKEKQQATTNARILARV-NH2 [SEQ ID NO 322]
recorded-measurement: 96.5
--
binder: ZGPPISIDLPFQLLRKVIEIEKQEKEKQQATTNARLLDRV (C-terminal amide) [SEQ ID NO 351]
recorded-measurement: 97.4
--
binder: DNPSLSIDLPLQLLRTLLELEKTQSQRERAEQNAIIFASV-NH2 [SEQ ID NO 342]
recorded-measurement: 92.2
--
binder: ZGPPISIDLPIFLLRKMIEIEKQEKEKQQAANNARLLARI (C-terminal amide) [SEQ ID NO 282]
recorded-measurement: 60.8
--
binder: ZGPPISIDLPTWLLRKMIEIEKQEKEKQQAANNARLLARI (C-terminal amide) [SEQ ID NO 292]
recorded-measurement: 86.1
--
binder: ZGPPISIDLPQWLLRKMIEIEKQEKEKQQAANNRLLLDTI (C-terminal amide) [SEQ ID NO 213]
recorded-measurement: 99
--
binder: NDDPPISIDLPQYLLRNMIEMARIENEREQAGLNAKYLAEV-NH2 [SEQ ID NO 265]
recorded-measurement: 23.4
--
binder: DNPSLSIDVPLYLLRTLLELEKTQSQRERAEQNARIFARV-NH2 [SEQ ID NO 387]
recorded-measurement: 100
--
binder: ZGPPISIDLPLQLLRKVIEIEKQEKEKQQAANNALLLATI (C-terminal amide) [SEQ ID NO 349]
recorded-measurement: 100
--
binder: ZGPPISIDLPFWLLRKMIEIEKQEKEKQQAANNRLLLDTI (C-terminal amide) [SEQ ID NO 217]
recorded-measurement: 95
--
binder: ZGPPISIDLPFQLLRKVIEIEKQEKEKQQAANNAKLLAKI (C-terminal amide) [SEQ ID NO 274]
recorded-measurement: 100
--
binder: DNPSLSIDLPLILLRTLLELEKTQSQRERAEQNAIIFASV-NH2 [SEQ ID NO 345]
recorded-measurement: 100
